Hello, the source for this data is ChEMBL document CHEMBL5291721, in case you need it.

The listing below reports AC50 for compounds tested on 5-hydroxytryptamine receptor 1A (Homo sapiens). Note: assay procedure not described here.
Sequence (P08908 whole entry): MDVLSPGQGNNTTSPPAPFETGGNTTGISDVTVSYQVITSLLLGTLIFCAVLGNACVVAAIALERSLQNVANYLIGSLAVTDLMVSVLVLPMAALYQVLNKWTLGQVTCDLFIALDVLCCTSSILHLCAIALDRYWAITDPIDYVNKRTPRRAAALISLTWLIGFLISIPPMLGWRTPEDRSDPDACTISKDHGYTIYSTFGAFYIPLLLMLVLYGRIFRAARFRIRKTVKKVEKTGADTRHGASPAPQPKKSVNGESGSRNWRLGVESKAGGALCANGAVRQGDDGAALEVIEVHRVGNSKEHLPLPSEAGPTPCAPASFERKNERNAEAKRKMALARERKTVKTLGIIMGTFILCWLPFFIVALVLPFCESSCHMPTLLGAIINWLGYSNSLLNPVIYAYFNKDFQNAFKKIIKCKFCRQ

>  <compound>
CCCC(C)(COC(N)=O)COC(=O)NC(C)C (stereo not given) [CARISOPRODOL]

>  <AC50>
> 10 µM

$$$$
>  <compound>
CC(=O)c1ccc2c(c1)N(CCCN1CCC(CCO)CC1)c1ccccc1S2 [PIPERACETAZINE]

>  <AC50>
0.0421 µM

$$$$
>  <compound>
CC(C)C[C@H](CN)CC(=O)O [PREGABALIN]

>  <AC50>
> 10 µM

$$$$
>  <compound>
Clc1ccc2c(c1)C(c1ccccc1)=NCc1nncn1-2 [ESTAZOLAM]

>  <AC50>
> 10 µM

$$$$
>  <compound>
COC(=O)[C@H](c1ccccc1Cl)N1CCc2sccc2C1 [CLOPIDOGREL]

>  <AC50>
> 10 µM

$$$$
>  <compound>
NCCCC(O)(P(=O)(O)O)P(=O)(O)O [ALENDRONIC ACID]

>  <AC50>
> 10 µM

$$$$

Entry under test: CC1(C)S[C@@H]2[C@H](NC(=O)[C@H](N)c3ccc(O)cc3)C(=O)N2[C@H]1C(=O)O [AMOXICILLIN] . Its AC50 was > 10 µM

Entry under test: Cn1c(=O)c2[nH]cnc2n(C)c1=O [THEOPHYLLINE] . Its AC50 was > 10 µM

Entry under test: COc1ccnc(C[S+]([O-])c2nc3ccc(OC(F)F)cc3[nH]2)c1OC (stereo not given) [PANTOPRAZOLE] . Its AC50 was > 10 µM

Entry under test: COc1ccc(C(CN(C)C)C2(O)CCCCC2)cc1 (stereo not given) [VENLAFAXINE] . Its AC50 was > 10 µM

Entry under test: [H]/N=C(/N)N[C@H]1[C@H](O)[C@@H](O)[C@H](O[C@@H]2O[C@@H](C)[C@](O)(C=O)[C@H]2O[C@@H]2O[C@@H](CO)[C@H](O)[C@@H](O)[C@@H]2NC)[C@@H](N/C(N)=N\[H])[C@@H]1O [STREPTOMYCIN] . Its AC50 was > 10 µM

Entry under test: COc1ccc2c(c1)[C@]13CCCC[C@@H]1[C@H](C2)N(C)CC3 [DEXTROMETHORPHAN] . Its AC50 was > 10 µM

Entry under test: CC1(C)O[C@@H]2[C@@H](CO[C@@]3(COS(N)(=O)=O)OC(C)(C)O[C@@H]23)O1 [TOPIRAMATE] . Its AC50 was > 10 µM

Entry under test: CC#CCn1c(N2CCC[C@@H](N)C2)nc2c1c(=O)n(Cc1nc(C)c3ccccc3n1)c(=O)n2C [LINAGLIPTIN] . Its AC50 was > 10 µM

Entry under test: CCCCNc1ccc(C(=O)OCCN(C)C)cc1 [TETRACAINE] . Its AC50 was > 10 µM

----------
The listing below reports AC50 for compounds tested on Sodium-dependent noradrenaline transporter (Homo sapiens). Note: assay procedure not described here.
Sequence (P23975 whole entry): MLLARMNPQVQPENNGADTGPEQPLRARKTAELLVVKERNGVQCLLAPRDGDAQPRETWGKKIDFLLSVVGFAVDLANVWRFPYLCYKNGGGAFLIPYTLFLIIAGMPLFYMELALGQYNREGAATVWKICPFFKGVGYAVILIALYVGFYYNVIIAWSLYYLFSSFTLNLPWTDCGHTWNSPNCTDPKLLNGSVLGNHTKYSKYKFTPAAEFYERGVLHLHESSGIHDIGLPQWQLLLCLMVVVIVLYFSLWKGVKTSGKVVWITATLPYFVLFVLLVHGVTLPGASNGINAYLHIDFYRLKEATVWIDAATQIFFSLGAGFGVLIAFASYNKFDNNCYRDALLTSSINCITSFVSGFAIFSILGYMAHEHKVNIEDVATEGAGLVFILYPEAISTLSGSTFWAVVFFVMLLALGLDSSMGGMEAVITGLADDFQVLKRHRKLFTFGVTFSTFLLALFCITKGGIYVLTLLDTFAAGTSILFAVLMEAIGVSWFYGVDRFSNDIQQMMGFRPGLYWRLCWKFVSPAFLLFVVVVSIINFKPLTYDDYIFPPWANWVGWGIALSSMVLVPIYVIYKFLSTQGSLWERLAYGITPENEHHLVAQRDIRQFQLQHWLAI

Here are 3 compounds together with their reported answers.
>  <compound>
C[C@]1(COc2ccc(N3CCC(Oc4ccc(OC(F)(F)F)cc4)CC3)cc2)Cn2cc([N+](=O)[O-])nc2O1

>  <AC50>
> 10 µM

$$$$
>  <compound>
CS(=O)(=O)OCCCCOS(C)(=O)=O

>  <AC50>
> 30 µM

$$$$
>  <compound>
CCCCNc1ccc(C(=O)OCCN(C)C)cc1

>  <AC50>
> 10 µM

$$$$

Query N=C(N)NCCCCCCC(=O)NC(O)C(=O)NCCCCNCCCN (stereo not drawn) on Sodium-dependent noradrenaline transporter (Homo sapiens); AC50 returned: > 30 µM

Query `CCCCC[C@H](O)/C=C/[C@H]1[C@H](O)CC(=O)[C@@H]1C/C=C\CCCC(=O)O` on Sodium-dependent noradrenaline transporter (Homo sapiens); AC50 returned: > 30 µM

Query `CC(C)=CCOc1ccc(/C=C/C(=O)c2ccc(OCC=C(C)C)cc2OCC(=O)O)cc1` on Sodium-dependent noradrenaline transporter (Homo sapiens); AC50 returned: 26 µM

Query CN1c2ccccc2C(NCCCCCCC(=O)O)c2ccc(Cl)cc2S1(=O)=O (stereo not drawn) on Sodium-dependent noradrenaline transporter (Homo sapiens); AC50 returned: > 30 µM

Query `C[C@@H]1C[C@H]2[C@@H]3C[C@H](F)C4=CC(=O)C=C[C@]4(C)[C@@]3(F)[C@@H](O)C[C@]2(C)[C@H]1C(=O)CO` on Sodium-dependent noradrenaline transporter (Homo sapiens); AC50 returned: > 30 µM

----------
The listing below reports AC50 for compounds tested on UniProtKB P41968.
Sequence (P41968 whole entry): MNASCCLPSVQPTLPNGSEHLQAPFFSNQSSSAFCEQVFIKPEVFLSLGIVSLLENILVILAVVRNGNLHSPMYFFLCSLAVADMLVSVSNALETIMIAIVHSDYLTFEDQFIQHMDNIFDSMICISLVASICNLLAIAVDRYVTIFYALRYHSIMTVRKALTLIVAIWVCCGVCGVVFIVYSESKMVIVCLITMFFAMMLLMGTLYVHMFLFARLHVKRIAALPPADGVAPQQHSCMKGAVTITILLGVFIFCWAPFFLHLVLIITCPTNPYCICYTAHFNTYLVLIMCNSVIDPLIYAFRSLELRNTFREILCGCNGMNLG

Here are 3 compounds together with their reported answers.
>  <compound>
NS(=O)(=O)c1cc(C(=O)O)cc(N2CCCC2)c1Oc1ccccc1 [PIRETANIDE]

>  <reported.metric>
AC50

>  <reported.result>
> 30 µM

$$$$
>  <compound>
CCC(=O)OCC(=O)[C@@]1(OC(=O)CC)[C@@H](C)C[C@H]2[C@@H]3CCC4=CC(=O)C=C[C@]4(C)[C@@]3(F)[C@@H](O)C[C@@]21C [BETAMETHASONE DIPROPIONATE]

>  <reported.metric>
AC50

>  <reported.result>
> 30 µM

$$$$
>  <compound>
C=CC(N)CCC(=O)O (centres undefined)

>  <reported.metric>
AC50

>  <reported.result>
> 10 µM

$$$$

Consider the record given below.
Query `COc1cc(OC)c(C(=O)CCCN2CCCC2)c(OC)c1` on UniProtKB P41968; AC50 returned: > 30 µM

----------
The listing below reports AC50 for molecules tested on Neuronal acetylcholine receptor subunit alpha-4 (Homo sapiens). Note: assay procedure not described here.
Sequence (P43681 whole entry): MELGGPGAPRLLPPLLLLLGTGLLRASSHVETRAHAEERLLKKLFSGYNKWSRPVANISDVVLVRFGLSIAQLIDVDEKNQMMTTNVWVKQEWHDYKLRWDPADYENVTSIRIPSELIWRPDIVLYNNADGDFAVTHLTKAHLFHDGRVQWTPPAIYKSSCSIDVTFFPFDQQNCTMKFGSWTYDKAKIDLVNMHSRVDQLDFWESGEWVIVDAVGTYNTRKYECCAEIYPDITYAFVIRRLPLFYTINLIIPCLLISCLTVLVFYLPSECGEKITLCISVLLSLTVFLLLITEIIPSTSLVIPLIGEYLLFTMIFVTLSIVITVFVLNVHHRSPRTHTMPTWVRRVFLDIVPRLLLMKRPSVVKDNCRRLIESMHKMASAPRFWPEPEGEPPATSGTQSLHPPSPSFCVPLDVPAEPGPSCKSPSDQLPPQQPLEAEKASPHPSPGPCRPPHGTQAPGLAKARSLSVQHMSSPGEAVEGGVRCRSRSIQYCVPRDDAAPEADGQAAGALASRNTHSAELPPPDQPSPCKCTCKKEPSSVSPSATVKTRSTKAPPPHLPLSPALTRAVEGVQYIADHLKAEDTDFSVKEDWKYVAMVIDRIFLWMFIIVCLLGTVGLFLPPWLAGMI

Here are 4 molecules together with their reported answers.
>  <molecule>
CC(=N)N1CC[C@H](SC2=C(C(=O)O)N3C(=O)[C@H]([C@@H](C)O)[C@H]3C2)C1

>  <reported.result>
170 µM

$$$$
>  <molecule>
Cc1cc2nc3c(=O)[nH]c(=O)nc-3n(C[C@H](O)[C@H](O)[C@H](O)COP(=O)(O)O)c2cc1C [RIBOFLAVIN 5'-PHOSPHATE]

>  <reported.result>
> 30 µM

$$$$
>  <molecule>
O=C(CCCN1CCC(n2c(O)nc3ccccc32)CC1)c1ccc(F)cc1

>  <reported.result>
> 30 µM

$$$$
>  <molecule>
O=C(O)c1cc(O)c2c3nc4ccccc4oc-3cc(=O)c2n1

>  <reported.result>
> 30 µM

$$$$

Consider the record given below.
Entry under test: `N#Cc1ccccc1-c1cc(-c2ccccn2)cn(-c2ccccc2)c1=O` . Its AC50 was > 30 µM

----------
The listing below reports AC50 for compounds tested on 5-hydroxytryptamine receptor 2C (Homo sapiens). Note: assay procedure not described here.
Sequence (P28335 whole entry): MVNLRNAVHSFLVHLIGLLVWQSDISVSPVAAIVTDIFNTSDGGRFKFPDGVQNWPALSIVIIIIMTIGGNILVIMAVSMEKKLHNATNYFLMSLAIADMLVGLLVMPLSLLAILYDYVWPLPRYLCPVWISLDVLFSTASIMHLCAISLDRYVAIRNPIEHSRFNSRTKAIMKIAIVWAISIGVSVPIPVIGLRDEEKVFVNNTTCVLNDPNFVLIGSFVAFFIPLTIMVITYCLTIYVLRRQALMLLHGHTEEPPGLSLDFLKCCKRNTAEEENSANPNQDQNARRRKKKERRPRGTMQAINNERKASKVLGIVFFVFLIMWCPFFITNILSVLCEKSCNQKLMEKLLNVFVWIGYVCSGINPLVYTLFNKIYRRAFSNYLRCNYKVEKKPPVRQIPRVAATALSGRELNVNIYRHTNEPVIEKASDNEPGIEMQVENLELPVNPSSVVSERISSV

Here are 6 compounds together with their reported answers.
>  <compound>
Cc1cnc(NC(=O)C2=C(O)c3ccccc3S(=O)(=O)N2C)s1

>  <AC50>
> 10 µM

$$$$
>  <compound>
C[C@H]1C[C@H]2[C@@H]3CCC4=CC(=O)C=C[C@]4(C)[C@@]3(Cl)[C@@H](O)C[C@]2(C)[C@@]1(O)C(=O)CO

>  <AC50>
> 30 µM

$$$$
>  <compound>
NCCCC(O)(P(=O)(O)O)P(=O)(O)O

>  <AC50>
> 30 µM

$$$$
>  <compound>
C[C@@H]1CCC[C@H](C)N1NC(=O)c1ccc(Cl)c(S(N)(=O)=O)c1 [CLOPAMIDE]

>  <AC50>
> 30 µM

$$$$
>  <compound>
CC(C)OC(=O)C(C(=O)OC(C)C)=C1SC=CS1 [MALOTILATE]

>  <AC50>
> 30 µM

$$$$
>  <compound>
NC(=O)CCC/N=C(\c1ccc(Cl)cc1)c1cc(F)ccc1O [PROGABIDE]

>  <AC50>
> 30 µM

$$$$

Query `C[C@]1(COc2ccc(N3CCC(Oc4ccc(OC(F)(F)F)cc4)CC3)cc2)Cn2cc([N+](=O)[O-])nc2O1` on 5-hydroxytryptamine receptor 2C (Homo sapiens); AC50 returned: > 30 µM

Query `COc1cc(OC)c(C(=O)CCCN2CCCC2)c(OC)c1` on 5-hydroxytryptamine receptor 2C (Homo sapiens); AC50 returned: > 30 µM

Query `N[C@H](Cc1cc(I)c(Oc2cc(I)c(O)c(I)c2)c(I)c1)C(=O)O` on 5-hydroxytryptamine receptor 2C (Homo sapiens); AC50 returned: > 30 µM

Query COc1c(O[C@@H]2O[C@H](CO)[C@@H](O)[C@H](O)[C@H]2O)cc2c(c1OC)-c1ccc(SC)c(=O)cc1[C@@H](NC(C)=O)CC2 [THIOCOLCHICOSIDE] on 5-hydroxytryptamine receptor 2C (Homo sapiens); AC50 returned: > 30 µM

----------
# target: Estrogen receptor (Homo sapiens, UniProt P03372); note: assay procedure not described here
# Sequence (P03372 whole entry): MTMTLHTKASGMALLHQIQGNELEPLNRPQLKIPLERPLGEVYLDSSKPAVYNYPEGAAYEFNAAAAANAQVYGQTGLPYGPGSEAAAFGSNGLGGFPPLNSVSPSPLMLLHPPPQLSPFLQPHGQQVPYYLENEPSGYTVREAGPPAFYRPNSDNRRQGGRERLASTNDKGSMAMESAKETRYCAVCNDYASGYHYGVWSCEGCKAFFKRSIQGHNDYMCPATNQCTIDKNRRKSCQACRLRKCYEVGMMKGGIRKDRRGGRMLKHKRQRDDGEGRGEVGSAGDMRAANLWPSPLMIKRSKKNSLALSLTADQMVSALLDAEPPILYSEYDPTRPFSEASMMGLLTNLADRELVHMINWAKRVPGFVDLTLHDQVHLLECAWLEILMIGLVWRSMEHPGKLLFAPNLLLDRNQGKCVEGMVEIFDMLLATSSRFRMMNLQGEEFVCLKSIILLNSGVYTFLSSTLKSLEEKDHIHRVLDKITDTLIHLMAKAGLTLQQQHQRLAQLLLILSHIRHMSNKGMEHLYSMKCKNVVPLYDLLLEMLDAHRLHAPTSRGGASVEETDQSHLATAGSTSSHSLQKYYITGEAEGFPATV
*1 amine or outer side, *2 acyl side, *3 side chain or, on linkers, in order; H or OH if unused. Where a SMILES comes first, the peptide text is derived from it. Bridges are numbered along the chain shown (N, C = ends). [ ]: non-standard residue; d: D form. The star is where a group is joined. hTyr(3S-OH,4S-OH,3'-OSO3H) = N[C@H](C(=O)O)[C@H](O)[C@@H](O)c1ccc(O)c(OS(=O)(=O)O)c1; Orn(4R-OH,5R-OH) = O=C([C@H](C[C@@H](O)[C@@H](O)N[*:3])N[*:1])[*:2]; Pro(3S-OH,4S-Me) = C[C@H]1CN[C@H](C(=O)O)[C@H]1O; X1 = CCCCCOc1ccc(-c2cc(-c3ccc(C(=O)*)cc3)no2)cc1; Gln(3R-OH) = NC(=O)C[C@@H](O)[C@H](N)C(=O)O; Hyp = O=C(O)[C@@H]1C[C@@H](O)CN1
reported.metric: AC50

Here are 4 compounds together with their reported answers.
>  <compound>
Cc1cc(CCN2CCN(c3cccc(Cl)c3)CC2)n[nH]1 [MEPIPRAZOLE]

>  <AC50>
> 30 µM

$$$$
>  <compound>
CCCCCOc1ccc(-c2cc(-c3ccc(C(=O)N[C@H]4C[C@@H](O)[C@@H](O)NC(=O)[C@@H]5[C@@H](O)[C@@H](C)CN5C(=O)[C@H]([C@H](O)CC(N)=O)NC(=O)[C@H]([C@H](O)[C@@H](O)c5ccc(O)c(OS(=O)(=O)O)c5)NC(=O)[C@@H]5C[C@@H](O)CN5C(=O)[C@H]([C@@H](C)O)NC4=O)cc3)no2)cc1 [MICAFUNGIN] (X1-[Orn(4R-OH,5R-OH)]T[Hyp][hTyr(3S-OH,4S-OH,3'-OSO3H)][Gln(3R-OH)][Pro(3S-OH,4S-Me)]; lactam 1-C)

>  <AC50>
7.25 µM

$$$$
>  <compound>
Nc1ccncc1

>  <AC50>
> 30 µM

$$$$
>  <compound>
CN(C)C(=O)c1nc(CNC(=O)CN)n(-c2ccc(Cl)cc2C(=O)c2ccccc2Cl)n1

>  <AC50>
> 30 µM

$$$$

Consider the record given below.
Entry under test: Cc1ccc([C@@H]2O[C@H](CO)[C@@H](O)[C@H](O)[C@H]2O)cc1Cc1ccc(-c2ccc(F)cc2)s1 [CANAGLIFLOZIN ANHYDROUS] . Its AC50 was > 30 µM
